Please go through the items and note down their Anti-PSMA Fab (SEQ ID NOs: 19, 20) signal.
molecular target: T1, Anti-PSMA Fab (SEQ ID NOs: 19, 20); assay: phage binding ELISA; biotinylated PSMA Fab on neutravidin plate, clonal phage supernatant, anti-M13 HRP detection;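 note: wells were preincubated with blocking buffer either containing PSMA antigen or without it before crude phage supernatant was added, briefly incubated, then washed prior to detection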
T1 construct: Biotinylated and captured on neutravidin-coated plates in the phage ELISA; also called 006 PSMA Fab
Where no end group is shown, it is not given here.
Give bare numbers.

Illustrative cases are given below, each with its answer.
Binder | Data Value
GEIWCTPKWMCDGF [Phage-2246 peptide (SEQ ID NO: 2562)] | 1.55
LMKWCIPQWMCQLD [Phage-2243 peptide (SEQ ID NO: 2559)] | 1.56
IIKWCTPEWMCVGF [Phage-2249 peptide (SEQ ID NO: 2565)] | 1.55
LENWCKPAWMCWGM [Phage-2248 peptide (SEQ ID NO: 2564)] | 1.55
LMNWCIPPWMCSAQ [Phage-2242 peptide (SEQ ID NO: 2558)] | 1.56

For each of the items listed, what is its Anti-PSMA Fab (SEQ ID NOs: 19, 20) signal?
1. GTNWCTPAWMCAGF (cysteine pairing not given here; also: displayed on bacteriophage as fusion to pIII) [Phage-2251 peptide (SEQ ID NO: 2567)]
2. LVKLCIPEWMCSEG [Phage-2244 peptide (SEQ ID NO: 2560)]

Result string:
1. 1.55
2. 1.56

Reference source: patent US20260242478A1
